# maps each entry to its growth
- System: UO-31 renal
- ASSAY NOTES: NCI-60 one-dose screen, 48 h (100 = growth as untreated, 0 = no growth, -100 = all killed)
- CONDITION LABEL: 10 µM
This is part of a sample that, as a whole, favours compounds with a hit. Of some 83,000 tested, about 20% had one in any assay. Calls of active or inactive are those of the source. Rule for the calls: active = growth percent below 10; inactive = the rest.

COc1cc([N+](=O)[O-])c2ncccc2c1[N+](=O)[O-]; 41% (inactive)
C[C@@H]1C[C@@H]([C@H](O)CC2CC(=O)NC(=O)C2)C(=O)[C@@H](C)C1; 0.7% (active)
C[C@]12CC[C@H]3[C@@H](CCC4=CC(=O)CC[C@@H]43)[C@@H]1CC[C@@H]2OC(=O)N(CCCl)N=O; 40.8% (inactive)
O=C(O)c1cc(Cc2ccc(O)c(C(=O)O)c2)ccc1O (tested in a mixture with another compound); 42.6% (inactive)
COC(=O)C1C(O)C(C)C(O)C(C)/C=C\C=C(C)C(=O)Nc2c(C)c(OC(C)=O)c3c(c2O)C(=O)C(C)=C2OCOC(=C23)C(C)=CC(C)(O)C(O)C(C)C1O (stereo unspecified); 103% (inactive)

Please look at this compound and report its growth: CN(C)CC1(N)C(=O)NC(=O)NC1=O 96.3% (inactive)

Please look at this compound and report its growth: O=C(CCl)Nc1ccc(Cl)cc1 79.7% (inactive)

Please look at this compound and report its growth: CC12OOC(c3ccccc31)c1c2ccc2ccccc12 (stereo unspecified) -95.4% (active)

Please look at this compound and report its growth: COc1ccc2c(ccc3oc([N+](=O)[O-])cc32)c1 -13.4% (active)

Please look at this compound and report its growth: CC/C(=C/c1ccc(OC)cc1OC)[N+](=O)[O-] 28.1% (inactive)

Please look at this compound and report its growth: COC1CC2C=C(C)/C=C/C=C/C(=O)NC(c3ccccc3)C/C=C/CCC(O)CC(=O)C2=C1O (stereo unspecified) -95.7% (active)
